# systemName: T1, soluble HLA-A2 (…) tetramer (human)
# T1 construct: Bought tetramer reagent; also called MAGE-A4/HLA tetramer reagent; HLA-A02:01 MAGE-A4 tetramer
# experimentalDetails: flow cytometry, HLA-A2 (…) tetramer staining of CHO cells transfected with the TCR
outcomeMeasure: % in Ag+ gate >250 MFI, >1% (%)
Answers are plain numbers, in %.

These recorded examples may help you get a feel for the data.
PN41748 (TCR, V domains shown, stained with anti-mouse TCR constant region H57-597; full-length chains on transfected CHO cells; also called TCR No. 29) V domain 1: SQELEQSQQSLIVQEGKNLTINCTSSKTLYGLYWYKQKYGEGLIFLMMLQKGGEEKSHEKITAKLDEKKQQSSLHITASQPSHAGIYLCGADMYSGGGADGLTFGKGTHLIIQP V domain 2: GAVVSQHPSWVICKSGTSVKIECRSLDFQATTMFWYRQFPKQSLMLMATSNEGSKATYEQGVEKDKFLINHASLTLSTLTVTSAHPEDSSFYICSAWDGFYGYTFGSGTRLTVV = 9.56
PN41613 (TCR, V domains shown, stained with anti-mouse TCR constant region H57-597; full-length chains on transfected CHO cells; also called TCR No. 19) V domain 1: AQTVTQSQPEMSVQEAETVTLSCTYDTSESDYYLFWYKQPPSRQMILVIRQEAYKQQNATENRFSVNFQKAAKSFSLKISDSQLGDAAMYFCAYRSATGNQFYFGTGTSLTVIP V domain 2: EAQVTQNPRYLITVTGKKLTVTCSQNMNHEYMSWYRQDPGLGLRQIYYSMNVEVTDKGDVPEGYKVSRKEKRNFPLILESPSPNQTSLYFCASSLLYSNQPQHFGDGTRLSIL = 58.7
PN41868 (TCR, V domains shown, stained with anti-mouse TCR constant region H57-597; full-length chains on transfected CHO cells; also called TCR No. 37) V domain 1: AQTVTQSQPEMSVQEAETVTLSCTYDTSESDYYLFWYKQPPSRQMILVIRQEAYKQQNATENRFSVNFQKAAKSFSLKISDSQLGDAAMYFCAYRSATGNQFYFGTGTSLTVIP V domain 2: DVKVTQSSRYLVKRTGEKVFLECVQDMDHENMFWYRQDPGLGLRLIYFSYDVKMKEKGDIPEGYSVSREKKERFSLILESASTNQTSMYLCASSLWGTHEKLFFGSGTQLSVL = 67.1
PN41565 (TCR, V domains shown, stained with anti-mouse TCR constant region H57-597; full-length chains on transfected CHO cells; also called TCR No. 13) V domain 1: AQTVTQSQPEMSVQEAETVTLSCTYDTSESDYYLFWYKQPPSRQMILVIRQEAYKQQNATENRFSVNFQKAAKSFSLKISDSQLGDAAMYFCAYRSPTGNQFYFGTGTSLTVIP V domain 2: DVKVTQSSRYLVKRTGEKVFLECVQDMDHENMFWYRQDPGLGLRLIYFSYDVKMKEKGDIPEGYSVSREKKERFSLILESASTNQTSMYLCASSLWAMNTEAFFGQGTRLTVV = 4.02

Proceeding to the next binder to report its % in Ag+ gate >250 MFI, >1%.
## Input Tell us which % in Ag+ gate >250 MFI, >1% value is on record for PN41607 (TCR, V domains shown, stained with anti-mouse TCR constant region H57-597; full-length chains on transfected CHO cells; also called TCR No. 17) V domain 1: AQTVTQSQPEMSVQEAETVTLSCTYDTSESDYYLFWYKQPPSRQMILVIRQEAYKQQNATENRFSVNFQKAAKSFSLKISDSQLGDAAMYFCAYRSASGNQFYFGTGTSLTVIP V domain 2: DVKVTQSSRYLVKRTGEKVFLECVQDMDHENMFWYRQDPGLGLRLIYFSYDVKMKEKGDIPEGYSVSREKKERFSLILESASTNQTSMYLCASSLWGTNEKLFFGSGTQLSVL
## Output 81
